target: human TMEM106B (human, UniProt Q9NUM4 2-274); experiment: cell-based or functional assay; note: test concentration or dose not given here
Task for the reader: assign each of the following binders its reported % Protection from CPE.
Write the value in % as a bare number.

[Q] What % Protection from CPE value was documented for this binder, TM-52 (antibody, V domains shown, mouse hybridoma mAb) VH: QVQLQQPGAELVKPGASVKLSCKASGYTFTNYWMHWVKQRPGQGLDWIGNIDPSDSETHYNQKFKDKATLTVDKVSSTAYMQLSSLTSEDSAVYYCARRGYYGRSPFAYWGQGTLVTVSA VL: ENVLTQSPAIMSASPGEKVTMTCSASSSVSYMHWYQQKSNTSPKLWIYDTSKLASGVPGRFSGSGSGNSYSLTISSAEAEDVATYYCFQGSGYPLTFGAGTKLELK ?
[A] 3.6

[Q] Now the binder TM-11 (antibody, V domains shown) VH: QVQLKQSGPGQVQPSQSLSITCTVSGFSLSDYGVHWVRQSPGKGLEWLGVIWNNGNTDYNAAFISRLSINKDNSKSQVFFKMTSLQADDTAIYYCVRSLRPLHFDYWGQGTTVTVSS VL: DIVMTQSPSSLTMSVGQKVTMHCKSSQSLLNSNNLQNYLAWYQQKPGQSPTLLVYFASIRESGVPDRFIGSGSGTDFTLTISSVQAEDLADYFCQQHYNTPFTFGSGTKLEIR
[A] 93.9

[Q] Now the binder TM-33 (antibody, V domains shown, mouse hybridoma mAb) VH: EFQLQQSGPELVKPGASVKISCKASGYSFTDYNMNWVKQSNGKSLEWIGVINPNYGTTSYNQKFKGKATLTVDQSSSTAYMQLNSLTSEDSAVYYCASSYWGQGTLVTVSA VL: DIVMTQSQKFMSTTVGDRVSITCKASQNVGTAVAWYQQKPGQSPKLLIYSASNRYTGVPDRFTGSGSGTDFTLTISNMQSEDLADYFCQQYSSYPYTFGGGTKLEIK
[A] 4.4
